The origin of these recorded values is ChEMBL document CHEMBL3046412.

# Tested on: Mycobacterium tuberculosis
# procedure-text: Antimycobacterial activity against Mycobacterium tuberculosis H37Rv ATCC 27294 at 12.5 ug/ml by microplate alamar blue assay relative to control
# Assay type: functional
Please go through the items and note down their inhibition at 12.5 µg/mL.
Give the quantity in %, number only.

What does the data say about its inhibition at 12.5 µg/mL? Entry: `CC(C)Cc1cnc(C(=O)/C=C/c2ccc(O)cc2)cn1` 63

What does the data say about its inhibition at 12.5 µg/mL? Entry: `COc1cc(/C=C/C(=O)c2cnccn2)ccc1O` 35

What does the data say about its inhibition at 12.5 µg/mL? Entry: `O=C(/C=C/c1ccc(O)cc1)c1cnccn1` 42

What does the data say about its inhibition at 12.5 µg/mL? Entry: `CCCCc1cnc(C(=O)/C=C/c2ccc(O)c(OC)c2)cn1` 45

What does the data say about its inhibition at 12.5 µg/mL? Entry: `CCCCc1cnc(C(=O)/C=C/c2ccccc2O)cn1` 33

What does the data say about its inhibition at 12.5 µg/mL? Entry: `CCCc1cnc(C(=O)/C=C/c2ccc(O)cc2)cn1` 35

What does the data say about its inhibition at 12.5 µg/mL? Entry: `CCCc1cnc(C(=O)/C=C/c2ccccc2O)cn1` 50

What does the data say about its inhibition at 12.5 µg/mL? Entry: `COc1cc(/C=C/C(=O)c2cnc(CC(C)C)cn2)ccc1O` 53

What does the data say about its inhibition at 12.5 µg/mL? Entry: NC(=O)c1cnccn1 [PYRAZINAMIDE] 100

What does the data say about its inhibition at 12.5 µg/mL? Entry: `CN(C)c1ccc(/C=C/C(=O)c2cnccn2)cc1` 26

What does the data say about its inhibition at 12.5 µg/mL? Entry: `CC(C)Cc1cnc(C(=O)/C=C/c2ccccc2O)cn1` 20

What does the data say about its inhibition at 12.5 µg/mL? Entry: `CCCc1cnc(C(=O)/C=C/c2ccc(N(C)C)cc2)cn1` 8

What does the data say about its inhibition at 12.5 µg/mL? Entry: `CCCc1cnc(C(=O)/C=C/c2ccc(O)c(OC)c2)cn1` 20

What does the data say about its inhibition at 12.5 µg/mL? Entry: `CCCCc1cnc(C(=O)/C=C/c2ccc(N(C)C)cc2)cn1` 0

What does the data say about its inhibition at 12.5 µg/mL? Entry: `O=C(/C=C/c1ccccc1O)c1cnccn1` 55

What does the data say about its inhibition at 12.5 µg/mL? Entry: `CCCCc1cnc(C(=O)/C=C/c2ccc(O)cc2)cn1` 51

What does the data say about its inhibition at 12.5 µg/mL? Entry: `CC(C)Cc1cnc(C(=O)/C=C/c2ccc(N(C)C)cc2)cn1` 10

* * *

# Tested on: Chlorella vulgaris
# procedure-text: Inhibition of photosynthesis in Chlorella vulgaris chloroplast assessed as reduction of oxygen evolution rate after 4 hr by spectrophotometric analysis
# Assay type: functional
measured-endpoint: pIC50
Quick note: pIC50 means taking -log10 of the concentration in moles per liter.

Requested read-out pIC50, target or system Chlorella vulgaris, entry `CCCCc1cnc(C(=O)/C=C/c2ccc(O)cc2)cn1` 3.58

Requested read-out pIC50, target or system Chlorella vulgaris, entry `CCCCc1cnc(C(=O)/C=C/c2ccccc2O)cn1` 3.83

Requested read-out pIC50, target or system Chlorella vulgaris, entry `CC(C)(C)c1ncc(C(=O)Nc2cc(O)cc(Cl)c2)nc1Cl` 4.00

Requested read-out pIC50, target or system Chlorella vulgaris, entry `CCCc1cnc(C(=O)/C=C/c2ccccc2O)cn1` 4.00

Requested read-out pIC50, target or system Chlorella vulgaris, entry `CCCc1cnc(C(=O)/C=C/c2ccc(O)cc2)cn1` 3.29

Requested read-out pIC50, target or system Chlorella vulgaris, entry `CC(C)(C)c1cnc(C(=O)Nc2cccc(O)c2)cn1` 3.48

Requested read-out pIC50, target or system Chlorella vulgaris, entry `CC(C)Cc1cnc(C(=O)/C=C/c2ccccc2O)cn1` 4.20

Requested read-out pIC50, target or system Chlorella vulgaris, entry `CC(C)Cc1cnc(C(=O)/C=C/c2ccc(O)cc2)cn1` 3.63

Requested read-out pIC50, target or system Chlorella vulgaris, entry `CCCCCCCCSc1cc(C(N)=S)ccn1` 4.32
